Format: in vivo, human (healthy adult subjects)
Details: human, plasma, po, 40 mg/day
Reported metric: AUC(0-t) (ng·h/mL)

{"Molecule": "COc1ccc2[nH]c([S+]([O-])Cc3ncc(C)c(OC)c3C)nc2c1 (stereo not shown) [Omeprazole]", "Value observed": 3610}

Provenance of the data: paper PMC4153963
